Literature compilation of pKi measurements on 5-hydroxytryptamine receptor 6 (Homo sapiens).
pKi: −log10 of the molar value.
reported-endpoint: pKi

COc1ccc(S(=O)(=O)c2ccc3[nH]nc(C4CCN(C)CC4)c3c2)cc1; 6.91
O=S(=O)(c1ccccc1Cl)n1cc(C(F)F)c2cc(N3CCNCC3)ccc21; 7.89
NCCn1c(=O)n(S(=O)(=O)c2ccc3ccccc3c2)c2cccnc21; 8.30

I. CN1CCC(c2cn(S(=O)(=O)c3ccc(F)cc3)c3ccccc23)C1 (centres unmarked)
II. C/C(=N\NC(=N)N)c1ccn(S(=O)(=O)c2ccc(N)cc2)c1
III. NCCn1c(=O)n(S(=O)(=O)c2c(Cl)nc3sccn23)c2ccccc21
IV. C[C@@H](NCC1CCc2ccc(NS(=O)(=O)c3ccc(OC(F)(F)F)cc3)cc2O1)c1ccccc1 (some centres unmarked)
List items by pKi in falling order. Lab note: record answer as labels in requested order.
II, I, III, IV

a. CSc1nn2c(C)cc(C)nc2c1S(=O)(=O)c1ccccc1
b. O=S(=O)(c1ccccc1Cl)n1cc(C(F)F)c2c(N3CCNCC3)cc(Cl)cc21
Looking at a and b , which one comes out lower in pKi terms? Could you answer with the label of the item you picked?
a
(a: 8.67, b: 9.17)

* * *

pKi: −log10 of the molar value.
// compounds with pKi on 5-hydroxytryptamine receptor 6 (Homo sapiens), multi-source literature
reported-endpoint: pKi

O=S(=O)(c1ccc(Cl)s1)n1ncc2c(OC3CCNC3)cccc21 (stereo not shown); 8.05
COc1ccc(-c2cc(CC3CCOCC3)nc(N3CCNC(C)(C)C3)c2)cc1; 7.44
O=S(=O)(Nc1ccc2c(c1)OC(CN1CCCCC1CCO)CC2)c1ccccc1 (stereo not shown); 7.46
COc1ccc(S(=O)(=O)n2cc(C(F)F)c3c(N4CCNCC4)cccc32)cc1; 7.92

P. O=S(=O)(c1ccc(Br)s1)n1cc(C2CCN(Cc3ccccc3)C2)c2ccccc21 (stereo not shown)
Q. Nc1ccc(S(=O)(=O)n2ncc3c(OC[C@@H]4CCCN4)cccc32)cc1Cl
R. C[C@@H](NCC1CCc2ccc(NS(=O)(=O)c3ccc(N)cc3)cc2O1)c1ccccc1 (stereo partly shown)
S. C/C(=N\NC(=N)N)c1ccn(S(=O)(=O)c2sc3ccc(Cl)cc3c2C)c1
T. Cc1cc(C)n2nc(OCCO)c(S(=O)(=O)c3ccccc3)c2n1
Sort low-to-high on pKi, please. Arrange the labels as the request states and list them.
T, S, Q, P, R
(T: 6.65, S: 7.49, Q: 7.80, P: 8.05, R: 9.00)

* * *

5-hydroxytryptamine receptor 6 (Homo sapiens) Ki, compiled from various sources.
reported-endpoint: Ki (nM)

Worked cases, Ki given:
Clc1ccc(-c2[nH]c3ccccc3c2C=NNC2=NCCN2)cc1; 20.2
O=S(=O)(c1cc(Cl)c(Cl)s1)n1ncc2c(OCCN3CCCCC3)cccc21; 18

I. O=S(=O)(c1ccccc1F)n1ncc2c(OC3CCNC3)cccc21 (stereo not drawn)
II. N=C(N)NN=Cc1c(-c2ccc3ccccc3c2)[nH]c2ccccc12
III. O=S(=O)(c1ccccc1Br)n1cc(C(F)F)c2c(N3CCNCC3)cc(Cl)cc21
Rank the 3 compounds: largest Ki first, smallest last. Return the labels ranked in the requested order, please.
II, I, III
